- study.target: T1, recombinant human CD25 (IL2-Rα) (human, UniProt P01589 22-213, limits assumed)
- T1 construct: Bought recombinant soluble protein; also called IL2 receptor α chain; recombinant soluble human CD25
- T1 sequence (looked up): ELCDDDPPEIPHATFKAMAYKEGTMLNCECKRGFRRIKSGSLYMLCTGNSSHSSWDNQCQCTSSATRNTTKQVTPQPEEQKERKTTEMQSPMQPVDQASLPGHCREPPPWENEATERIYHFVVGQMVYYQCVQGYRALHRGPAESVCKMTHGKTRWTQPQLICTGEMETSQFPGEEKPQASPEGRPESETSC
- assay.notes: competitive ELISA on plate-coated CD25; competitor biotinylated daclizumab

{"columns": ["binder", "fold affinity over the parental antibody"],
 "data": [
  ["daclizumab VH variant RRKFE (antibody, IgG1, name in Kabat numbering, V domains shown, VH library clone, soluble IgG1) VH: QVQLVQSGAEVKKPGSSVKVSCKASGYTFTSYRMHWVRQAPGQGLEWIGYIRPRKGFTEYNQKFKDKATITADESTNTAYMELSSLRSEDTAVYYCARGGGVFDYWGQGTLVTVSS VL: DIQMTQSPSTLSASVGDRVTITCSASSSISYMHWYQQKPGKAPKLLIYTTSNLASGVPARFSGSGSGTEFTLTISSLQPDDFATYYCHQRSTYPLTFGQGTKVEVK", "~10 fold"],
  ["daclizumab VH variant RRGFE (antibody, IgG1, name in Kabat numbering, V domains shown, VH library clone, soluble IgG1) VH: QVQLVQSGAEVKKPGSSVKVSCKASGYTFTSYRMHWVRQAPGQGLEWIGYIRPRGGFTEYNQKFKDKATITADESTNTAYMELSSLRSEDTAVYYCARGGGVFDYWGQGTLVTVSS VL: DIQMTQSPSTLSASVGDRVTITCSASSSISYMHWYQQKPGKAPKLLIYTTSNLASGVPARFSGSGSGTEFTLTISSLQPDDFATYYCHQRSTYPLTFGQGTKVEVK", "~10 fold"]
]}
